Assay: qHTS assay to identify small molecule antagonists of the sonic hedgehog signaling (Shh) pathway (AID 1259369); also: nearly all actives have a fitted effect of over 45% in size
Conditions: NIH/3T3 Gli1-Luc reporter, Shh antagonist, luminescence 24 h; series mostly up to 92.4 µM
Inconclusive results are not listed. The source made the active and inactive calls. Calls follow the shape of the full dose curve.
A correct response names exactly one class from active, inactive

Illustrative cases are given below, each with its answer.
# molecule, group
measured = [
    ("CC(C)(C)C(=O)OCOC(=O)C1N2C(=O)CC2S(=O)(=O)C1(C)C (centres undefined)", "inactive"),
    ("CSc1cnc(C)cn1", "inactive"),
    ("CCCC1O[C@@H]2C[C@H]3[C@@H]4CCC5=CC(=O)C=C[C@]5(C)[C@H]4[C@@H](O)C[C@]3(C)[C@]2(C(=O)CO)O1 (some centres undefined)", "active"),
]

[in] Per the assay record, what outcome was assigned to `CC(C)(C)NC(=O)[C@@H]1C[C@@H]2CCCC[C@@H]2CN1C[C@@H](O)[C@H](Cc1ccccc1)NC(=O)[C@H](CC(N)=O)NC(=O)c1ccc2ccccc2n1` ?
[out] active

[in] Request: `CC(=O)N1CCN(c2ccc(OC[C@H]3CO[C@](Cn4ccnc4)(c4ccc(Cl)cc4Cl)O3)cc2)CC1`
[out] active

[in] Request: CCC(Cl)C(Cl)C(Cl)CC(Cl)C(Cl)C(C)Cl (centres undefined)
[out] inactive

[in] Request: `Cc1[nH]nc2c1N=C(c1ccccc1Cl)c1cc([N+](=O)[O-])ccc1N2`
[out] active

[in] Request: `CC(C)CCCCCCCCCCCCCCC(=O)O`
[out] inactive

[in] Request: `CC(C)(C)CC(C)(C)c1ccc(OCCOCC[N+](C)(C)Cc2ccccc2)cc1`
[out] active

----------
Target: Thyrotropin receptor (Homo sapiens) (UniProt P16473)
Sequence (P16473 whole entry, looked up): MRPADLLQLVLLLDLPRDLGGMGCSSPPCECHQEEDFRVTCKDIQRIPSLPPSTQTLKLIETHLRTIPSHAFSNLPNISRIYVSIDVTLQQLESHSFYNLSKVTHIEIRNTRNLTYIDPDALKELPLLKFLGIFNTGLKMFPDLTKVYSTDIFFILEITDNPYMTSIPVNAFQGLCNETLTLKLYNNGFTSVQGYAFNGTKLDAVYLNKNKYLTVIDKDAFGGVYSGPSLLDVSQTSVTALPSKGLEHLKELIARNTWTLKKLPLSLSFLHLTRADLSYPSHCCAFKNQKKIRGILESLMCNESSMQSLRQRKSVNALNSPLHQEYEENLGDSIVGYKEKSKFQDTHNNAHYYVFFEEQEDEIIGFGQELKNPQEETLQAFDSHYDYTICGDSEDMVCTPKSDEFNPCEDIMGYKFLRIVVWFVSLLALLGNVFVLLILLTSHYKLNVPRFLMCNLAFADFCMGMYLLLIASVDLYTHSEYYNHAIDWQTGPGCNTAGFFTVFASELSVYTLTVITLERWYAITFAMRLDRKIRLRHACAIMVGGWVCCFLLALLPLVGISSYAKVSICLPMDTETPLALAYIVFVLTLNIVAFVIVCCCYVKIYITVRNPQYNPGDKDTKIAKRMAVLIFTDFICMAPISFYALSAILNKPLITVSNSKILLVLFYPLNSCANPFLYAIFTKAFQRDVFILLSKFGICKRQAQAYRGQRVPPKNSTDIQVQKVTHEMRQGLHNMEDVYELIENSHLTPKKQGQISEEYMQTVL
Assay: qHTS assay to identify small molecule antagonists of the thyroid stimulating hormone receptor (TSHR) signaling pathway (AID 1259385); also: nearly all actives have a fitted effect of over 20% in size
Details: TSHR-HEK293 cAMP HTRF, TSH-stimulated antagonist mode; series mostly up to 92.4 µM
Inconclusive results are not listed. Calls of active or inactive are those of the source. Calls follow the shape of the full dose curve.
A correct response names exactly one class from y (active), n (inactive)

# molecule, group
records = [
    ("CC(C)=CCOc1ccc(/C=C/C(=O)c2ccc(OCC=C(C)C)cc2OCC(=O)O)cc1", "n"),
    ("O=c1[nH]sc2cc(Cl)ccc12", "n"),
    ("CC(C)(C)C(=O)OCOC(=O)C1N2C(=O)CC2S(=O)(=O)C1(C)C (stereo not given)", "n"),
    ("O=c1c(-c2ccccc2)c1-c1ccccc1", "n"),
    ("C[C@]12CCC(=O)C=C1CC[C@@H]1[C@@H]2[C@@H](O)C[C@@]2(C)[C@H]1CC[C@]2(O)C(=O)COC(=O)CCC(=O)O", "n"),
    ("CC(=O)SC[C@@H](Cc1ccccc1)C(=O)NCC(=O)OCc1ccccc1", "y"),
]

[in] Per the assay record, what outcome was assigned to `O=S1(=O)CC(Cl)(Cl)C(Cl)(Cl)C1` ?
[out] y

[in] Request: `[Cl][Bi]([Cl])([c]1ccccc1)([c]1ccccc1)[c]1ccccc1`
[out] n

[in] Request: `Cc1onc(-c2c(Cl)cccc2Cl)c1C(=O)N[C@@H]1C(=O)N2[C@@H]1SC(C)(C)[C@@H]2C(=O)O`
[out] n

[in] Request: `O=C1c2ccccc2Cc2ccccc21`
[out] n
